Assay overview: NCI Yeast Anticancer Drug Screen. Data for the wt2 strain (AID 169)
Settings: S. cerevisiae wt2 strain growth inhibition; at 33.0 µM
Compounds without any hit were thinned out: in the full panel of roughly 79,000, 15% have a hit. The source made the active and inactive calls. Cut-off read from the data, not from the text of the source: active = growth inhibition above about 70%; inactive = the rest.
Outcomes: t for active, f for inactive

{"columns": ["Molecule", "Answer label"],
 "data": [
  ["Cc1ccc(Nc2n[nH]c(=S)s2)cc1C", "f"],
  ["Cc1ccc2nc(N/N=C/c3ccc(C)s3)cc(C)c2c1", "t"],
  ["c1ccc2cc(OCC3CO3)c(OCC3CO3)cc2c1 (stereo not given)", "f"],
  ["CCC1SC(=S)N(c2ccc(Cl)cc2)C1=O (stereo not given)", "f"],
  ["CCOC(=O)C1=C(C)NC(C)=C(C(=O)OCC)C1c1ccc(Cl)cc1", "t"],
  ["c1ccc(N/N=C2\\CC(c3ccccc3)Oc3ccccc32)cc1 (stereo not given)", "f"],
  ["COC1=C(N=[N+]=[N-])C(=O)c2ncccc2C1=O", "t"],
  ["O=C1C(Br)=CC(Br)(Br)C=C1Br", "t"],
  ["Cc1nc2ccc(Br)cc2c(=O)n1-c1ccc(NC2OCC(O)C(O)C2O)cc1 (stereo not given)", "f"],
  ["Cn1c(COc2ccc(/C=N/NC(=O)CCC(=O)N/N=C/c3ccc(OCc4c[n+]5ccccc5n4C)cc3)cc2)c[n+]2ccccc12", "f"]
]}
